- Test system: Liver
- assay.overview: Induction of hydrogen sulfide release in rat liver homogenate at 100 uM after 30 mins by microplate reader method (reference value: 1.03 to 1.21%)
- Format: functional, tissue-based
The label is 1 for Activity below 2% and 0 for Activity equal to or exceeding 2%.

Bench note: check whether CCCCC(OC(=O)CN1CCN(CCCCOc2ccc(-c3cc(=S)ss3)cc2)CC1)c1ccccc1C(=O)Oc1ccc(/C=C/C(=O)OCCCCO[N+](=O)[O-])cc1OC (racemic) shows Activity below 2%
1

Consider the compound CCCCC(OC(=O)CN1CCN(CCCCCCOc2ccc(-c3cc(=S)ss3)cc2)CC1)c1ccccc1C(=O)Oc1ccc(/C=C/C(=O)OCCO[N+](=O)[O-])cc1OC (racemic) . Is its Activity strictly less than 2%?
1

Record CCCCC(OC(=O)CN1CCN(CCCCCOc2ccc(-c3cc(=S)ss3)cc2)CC1)c1ccccc1C(=O)Oc1ccc(/C=C/C(=O)OCCO[N+](=O)[O-])cc1OC (racemic) : is its Activity strictly below 2%?
0

# check: Activity < 2% for CCCCC(OC(=O)CN1CCN(CCCCOc2ccc(-c3cc(=S)ss3)cc2)CC1)c1ccccc1C(=O)Oc1ccc(/C=C/C(=O)OCCCCCCO[N+](=O)[O-])cc1OC (racemic)
1

I wonder whether CCCCC(OC(=O)CN1CCN(CCOc2ccc(-c3cc(=S)ss3)cc2)CC1)c1ccccc1C(=O)Oc1ccc(/C=C/C(=O)OCCCCCCO[N+](=O)[O-])cc1OC (racemic) has Activity below 2%. Can you tell?
0

====

- assay.overview: Induction of nitric oxide release in potassium phosphate buffer at pH 7.4 at 0.1 mM after 15 mins by Griess assay
- Type: physicochemical
- test.context: pH 7.4, 0.25 h, 100 µM
Returns one of T or F; T when Activity is >= 2 µM.

State whether the measured Activity reaches 2 µM, counting equality as reaching it, for CCCCC(OC(=O)CN1CCN(CCCCCOc2ccc(-c3cc(=S)ss3)cc2)CC1)c1ccccc1C(=O)Oc1ccc(/C=C/C(=O)OCCO[N+](=O)[O-])cc1OC (racemic)
T

// inclusive: Activity at least 2 µM? input: CCCCC(OC(=O)CN1CCN(CCCCOc2ccc(-c3cc(=S)ss3)cc2)CC1)c1ccccc1C(=O)Oc1ccc(/C=C/C(=O)OCCCCCCO[N+](=O)[O-])cc1OC (racemic)
F

Determine whether measured Activity meets or exceeds 2 µM for CCCCC(OC(=O)CN1CCN(CCOc2ccc(-c3cc(=S)ss3)cc2)CC1)c1ccccc1C(=O)Oc1ccc(/C=C/C(=O)OCCCCCCO[N+](=O)[O-])cc1OC (racemic)
T

Hi team, for CCCCC(OC(=O)CN1CCN(CCCOc2ccc(-c3cc(=S)ss3)cc2)CC1)c1ccccc1C(=O)Oc1ccc(/C=C/C(=O)OCCCCO[N+](=O)[O-])cc1OC (racemic) , is the recorded Activity at or above 2 µM?
F

Exam item: decide whether the reported Activity for CCCCC(OC(=O)CN1CCN(CCCCOc2ccc(-c3cc(=S)ss3)cc2)CC1)c1ccccc1C(=O)Oc1ccc(/C=C/C(=O)OCCCCO[N+](=O)[O-])cc1OC (racemic) is at least 2 µM.
T

// inclusive: Activity at least 2 µM? input: CCCCC(OC(=O)CN1CCN(CCCCCCOc2ccc(-c3cc(=S)ss3)cc2)CC1)c1ccccc1C(=O)Oc1ccc(/C=C/C(=O)OCCCCO[N+](=O)[O-])cc1OC (racemic)
F

Exam item: decide whether the reported Activity for CCCCC(OC(=O)CN1CCN(CCCCCCOc2ccc(-c3cc(=S)ss3)cc2)CC1)c1ccccc1C(=O)Oc1ccc(/C=C/C(=O)OCCCCCCO[N+](=O)[O-])cc1OC (racemic) is at least 2 µM.
T
